System: Staphylococcus aureus KCTC 1621

{"columns": ["compound", "MIC, µM"],
 "data": [
  ["CC[C@H](C)[C@H](NC(=O)[C@H](CCCCN)NC(=O)[C@H](Cc1c[nH]c2ccccc12)NC(=O)[C@@H](N)CCCN=C(N)N)C(=O)N[C@@H](Cc1ccccc1)C(=O)N[C@@H](CCCCN)C(=O)N[C@@H](CCCCN)C(=O)N[C@H](C(=O)N[C@H](C(=O)N[C@@H](CCCCN)C(=O)N[C@@H](CCCCN)C(=O)N[C@@H](C)C(N)=O)C(C)C)C(C)C [RWKIFKKVVKKA]", 8],
  ["CC[C@H](C)[C@H](N)C(=O)N[C@@H](CC(C)C)C(=O)N1CCC[C@H]1C(=O)N[C@@H](Cc1c[nH]c2ccccc12)C(=O)N[C@@H](CCCCN)C(=O)N[C@@H](Cc1c[nH]c2ccccc12)C(=O)N[C@@H](CCCCN)C(=O)N[C@@H](Cc1c[nH]c2ccccc12)C(=O)N[C@@H](Cc1c[nH]c2ccccc12)C(=O)N[C@@H](CCCCN)C(=O)N[C@@H](Cc1c[nH]c2ccccc12)C(=O)N[C@@H](CCCN=C(N)N)C(=O)N[C@@H](CCCN=C(N)N)C(N)=O [ILPWKWKWWKWRR]", 2.54],
  ["CC[C@H](C)[C@H](NC(=O)[C@H](CCCCN)NC(=O)[C@H](CCCCN)NC(=O)[C@H](Cc1ccccc1)NC(=O)[C@@H](N)Cc1c[nH]c2ccccc12)C(=O)N1CCC[C@H]1C(=O)N[C@@H](CCCCN)C(=O)N[C@@H](Cc1ccccc1)C(=O)N[C@@H](CC(C)C)C(=O)N[C@@H](Cc1cnc[nH]1)C(=O)N[C@@H](CC(C)C)C(=O)N[C@@H](C)C(=O)N[C@@H](CCCCN)C(=O)N[C@@H](CCCCN)C(=O)N[C@@H](Cc1ccccc1)C(N)=O [WFKKIPKFLHLAKKF]", 3.12],
  ["CC[C@H](C)[C@H](NC(=O)[C@H](CCCCN)NC(=O)[C@H](CCCCN)NC(=O)[C@H](Cc1ccccc1)NC(=O)[C@@H](NC(=O)[C@H](CCCCN)NC(=O)[C@H](Cc1c[nH]c2ccccc12)NC(=O)[C@@H](N)CCCN=C(N)N)[C@@H](C)CC)C(=O)N[C@@H](CCC(=O)O)C(=O)N[C@@H](CCCCN)C(=O)N[C@H](C(=O)NCC(N)=O)C(C)C [RWKIFKKIEKVG]", 16]
]}

###

Consider compounds characterized by their MIC with Candida albicans.

{"columns": ["compound.smiles", "MIC"],
 "data": [
  ["CC(C)C[C@H](NC(=O)[C@H](CCCCN)NC(=O)[C@H](CC(C)C)NC(=O)[C@@H](NC(=O)[C@H](CCCN=C(N)N)NC(=O)[C@H](CCCN=C(N)N)NC(=O)[C@@H](NC(=O)[C@H](Cc1c[nH]c2ccccc12)NC(=O)[C@H](CCCCN)NC(=O)[C@H](CCCN=C(N)N)NC(=O)[C@@H](NC(=O)[C@H](CCCN=C(N)N)NC(=O)[C@H](CCCN=C(N)N)NC(=O)[C@@H](N)C(C)C)C(C)C)C(C)C)C(C)C)C(=O)N[C@H](C(N)=O)C(C)C", "9.6 µM"],
  ["CC(C)C[C@H](NC(=O)CNC(=O)[C@H](CCCCN)NC(=O)[C@@H](N)CCCN=C(N)N)C(=O)N[C@@H](CCC(N)=O)C(=O)N[C@@H](CCCCN)C(=O)N[C@@H](CC(C)C)C(=O)N[C@H](C(=O)NCC(=O)N[C@@H](CCCN=C(N)N)C(=O)N[C@H](C(=O)N[C@@H](Cc1cnc[nH]1)C(=O)N[C@@H](CCCN=C(N)N)C(=O)N[C@@H](CC(C)C)C(=O)N[C@@H](CC(C)C)C(=O)N[C@@H](CCCN=C(N)N)C(=O)N[C@@H](CCCCN)C(=O)O)C(C)C)C(C)C", "7.78 µM"],
  ["CC[C@H](C)[C@H](NC(=O)CN)C(=O)N[C@@H](Cc1ccccc1)C(=O)N[C@@H](CO)C(=O)N[C@@H](CCCCN)C(=O)N[C@@H](CC(C)C)C(=O)N[C@@H](C)C(=O)NCC(=O)N[C@@H](CCCCN)C(=O)N[C@@H](CCCCN)C(=O)N[C@H](C(=O)N[C@@H](CCCCN)C(=O)N[C@@H](CC(N)=O)C(=O)N[C@@H](CC(C)C)C(=O)N[C@@H](CC(C)C)C(=O)N[C@H](C(=O)N[C@@H](CO)C(=O)NCC(=O)N[C@@H](CC(C)C)C(=O)N[C@@H](CCCCN)C(=O)NCC(N)=O)[C@@H](C)CC)[C@@H](C)CC", "2.83 µM"],
  ["CSCC[C@H](NC(=O)[C@@H](N)CO)C(=O)N[C@@H](CC(C)C)C(=O)N[C@@H](CO)C(=O)N[C@H](C(=O)N[C@@H](CC(C)C)C(=O)N[C@@H](CCCCN)C(=O)N[C@@H](CC(N)=O)C(=O)N[C@@H](CC(C)C)C(=O)NCC(=O)N[C@@H](CCCCN)C(=O)N[C@H](C(=O)NCC(=O)N[C@@H](CC(C)C)C(=O)NCC(=O)N[C@@H](Cc1ccccc1)C(=O)N[C@H](C(=O)N[C@@H](C)C(=O)O)C(C)C)C(C)C)C(C)C", "> 200 µM"]
]}

The reported measurements were obtained from DBAASP.
